assay: In vivo biodistribution and clearance in CD-1 mice; details: mouse, blood, intravenous, 40 pmol/g
outcomeMeasure: half-life

Qu. What measured half-life goes with `CC1(C)C(/C=C/C=C/C=C/C=C2\N(CCCCS(=O)(=O)O)c3ccc4ccccc4c3C2(C)C)=[N+](CCCCS(=O)(=O)[O-])c2ccc3ccccc3c21` ?
Ans. 2 to 5 min

###

experiment: In vivo biodistribution and clearance in CD-1 mice; conditions: male, CD-1, mouse, kidneys, intravenous, 40 pmol/g
outcomeMeasure: tissue uptake at 4 h (%ID/g)
# value in %ID/g; strip the unit string

Qu. What measured tissue uptake at 4 h goes with `CC1(C)C(/C=C/C=C/C=C/C=C2\N(CCCCS(=O)(=O)O)c3ccc4ccccc4c3C2(C)C)=[N+](CCCCS(=O)(=O)[O-])c2ccc3ccccc3c21` ?
Ans. 5.9
